Biological target: 5-hydroxytryptamine receptor 1A (Rattus norvegicus)
Sequence (P19327 whole entry): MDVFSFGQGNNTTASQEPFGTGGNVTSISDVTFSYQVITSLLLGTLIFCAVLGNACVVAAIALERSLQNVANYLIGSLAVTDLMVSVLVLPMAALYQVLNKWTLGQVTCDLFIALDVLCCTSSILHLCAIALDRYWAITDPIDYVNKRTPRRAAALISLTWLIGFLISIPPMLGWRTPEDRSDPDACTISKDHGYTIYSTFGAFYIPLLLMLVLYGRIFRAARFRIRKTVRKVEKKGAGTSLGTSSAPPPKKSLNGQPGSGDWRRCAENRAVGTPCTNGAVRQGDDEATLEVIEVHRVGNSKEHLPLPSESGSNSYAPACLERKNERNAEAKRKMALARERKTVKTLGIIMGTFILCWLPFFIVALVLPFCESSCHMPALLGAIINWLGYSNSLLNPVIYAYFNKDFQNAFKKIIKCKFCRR
Assay: Binding affinity of [3H]-8-OH-DPAT towards 5-hydroxytryptamine 1A receptor in cloned mammalian receptor expressed in cultured cells or from rat whole brain.
Measured Ki by item
observation.type: Ki (nM)

- NS(=O)(=O)c1ccc(N2CCN(CC[C@H]3OCCc4ccccc43)CC2)cc1: 2400
- COc1cc2c(cc1OC)C(CCN1CCN(c3ccc(F)cc3)CC1)OCC2 (configuration not stated): 93
- COc1ccc(N2CCN(CCC3OCCc4ccccc43)CC2)cc1 (configuration not stated): 1100
- COc1ccc(N2CCN(CC[C@@H]3OCCc4ccccc43)CC2)cc1: 490
- Fc1ccc(N2CCN(CCC3OCCc4ccccc43)CC2)cc1 (configuration not stated): 120

###

Target: D(2) dopamine receptor (Rattus norvegicus, UniProt P61169)
Sequence (P61169 whole entry): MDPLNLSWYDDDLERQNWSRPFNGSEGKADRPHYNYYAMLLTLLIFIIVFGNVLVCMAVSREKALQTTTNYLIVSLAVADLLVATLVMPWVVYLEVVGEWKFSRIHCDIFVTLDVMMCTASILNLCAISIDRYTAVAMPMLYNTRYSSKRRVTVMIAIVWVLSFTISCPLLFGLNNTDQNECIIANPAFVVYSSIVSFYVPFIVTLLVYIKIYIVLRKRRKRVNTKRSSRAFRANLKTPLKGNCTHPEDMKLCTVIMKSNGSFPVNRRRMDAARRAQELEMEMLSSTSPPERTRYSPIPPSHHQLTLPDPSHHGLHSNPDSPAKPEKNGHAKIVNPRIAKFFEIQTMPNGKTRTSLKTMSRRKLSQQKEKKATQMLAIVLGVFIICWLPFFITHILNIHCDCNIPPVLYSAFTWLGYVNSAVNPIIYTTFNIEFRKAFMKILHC
Test: Binding affinity to rat Dopamine receptor D2 expressed in CHO cells was determined using [3H]U-86170 as radioligand
pKi: −log10 of the molar value.
observation.type: pKi

• COc1ccc(N2CCN(CC[C@@H]3OCCc4ccccc43)CC2)cc1 = 6.10

###

Biological target: D(1A) dopamine receptor (Rattus norvegicus, UniProt P18901)
Sequence (P18901 whole entry): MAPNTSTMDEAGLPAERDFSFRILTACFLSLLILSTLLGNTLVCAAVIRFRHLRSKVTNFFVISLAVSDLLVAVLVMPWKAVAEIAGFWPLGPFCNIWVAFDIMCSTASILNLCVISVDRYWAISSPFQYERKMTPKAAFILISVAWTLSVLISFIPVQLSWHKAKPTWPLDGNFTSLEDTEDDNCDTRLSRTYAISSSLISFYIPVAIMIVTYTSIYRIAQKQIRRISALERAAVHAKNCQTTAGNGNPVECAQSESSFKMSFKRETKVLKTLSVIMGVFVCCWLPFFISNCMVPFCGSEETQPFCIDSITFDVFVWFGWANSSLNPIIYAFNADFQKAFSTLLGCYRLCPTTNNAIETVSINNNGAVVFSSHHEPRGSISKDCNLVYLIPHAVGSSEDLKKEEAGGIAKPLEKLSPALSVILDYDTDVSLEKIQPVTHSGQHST
Assay: Binding affinity of [3H]SCH-23,390 towards Dopamine receptor D1 in cloned mammalian receptor expressed in cultured cells or from rat whole brain.
Measured Ki by item
observation.type: Ki (nM)

- COc1cc2c(cc1OC)C(CCN1CCN(c3ccc(F)cc3)CC1)OCC2 (stereo not given): 26
- Fc1ccc(N2CCN(CCC3OCCc4ccccc43)CC2)cc1 (stereo not given): 410

###

Molecular target: UniProt P19020
Sequence (P19020 whole entry): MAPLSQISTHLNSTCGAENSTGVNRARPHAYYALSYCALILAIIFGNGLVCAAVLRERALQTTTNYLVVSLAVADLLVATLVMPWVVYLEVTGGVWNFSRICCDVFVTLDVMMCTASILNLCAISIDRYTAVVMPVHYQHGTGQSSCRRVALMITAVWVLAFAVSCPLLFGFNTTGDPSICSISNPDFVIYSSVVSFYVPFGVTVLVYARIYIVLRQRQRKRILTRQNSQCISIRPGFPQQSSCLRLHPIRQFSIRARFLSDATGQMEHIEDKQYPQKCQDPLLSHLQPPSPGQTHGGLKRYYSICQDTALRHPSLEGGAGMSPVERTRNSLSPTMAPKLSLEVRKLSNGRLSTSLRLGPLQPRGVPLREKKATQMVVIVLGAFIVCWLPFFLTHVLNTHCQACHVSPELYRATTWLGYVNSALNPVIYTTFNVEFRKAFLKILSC
Experiment: Binding affinity of [3H]spiperone towards Dopamine receptor D3 in cloned mammalian receptor expressed in cultured cells or from rat whole brain.
pKi: −log10 of the molar value.
criterion met means recorded pKi is 6 or above; criterion not met means it is below 6.

• Fc1ccc(N2CCN(CCC3OCCc4ccccc43)CC2)cc1 (stereo unspecified) = criterion met
• NS(=O)(=O)c1ccc(N2CCN(CC[C@H]3OCCc4ccccc43)CC2)cc1 = criterion not met
• COc1ccc(N2CCN(CC[C@H]3OCCc4ccccc43)CC2)cc1 = criterion met
• NS(=O)(=O)c1ccc(N2CCN(CC[C@@H]3OCCc4ccccc43)CC2)cc1 [SONEPIPRAZOLE] = criterion not met

###

Biological target: Translocator protein (Rattus norvegicus)
Sequence (P16257 whole entry, looked up): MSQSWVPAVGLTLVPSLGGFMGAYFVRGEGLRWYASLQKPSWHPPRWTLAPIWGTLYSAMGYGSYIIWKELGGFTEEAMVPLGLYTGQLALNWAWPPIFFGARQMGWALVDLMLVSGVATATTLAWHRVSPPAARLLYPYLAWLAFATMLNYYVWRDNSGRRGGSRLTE
Test: Displacement of [3H]PK11195 binding from peripheral benzodiazepine receptor in C6 rat glioma cell line
pIC50: −log10 of the molar value.
observation.type: pIC50

* CCCCCCN(CCCCCC)C(=O)Cc1c(-c2ccc(F)cc2)[nH]c2ccccc12 | 8.00

###

Molecular target: UniProtKB P61169
Test: Binding affinity of [3H]U-86170 towards Dopamine receptor D2 in cloned mammalian receptor expressed in cultured cells or from rat whole brain
Type: cell-based
observation.type: Ki (nM)

• COc1ccc(N2CCN(CCC3OCCc4ccccc43)CC2)cc1 (stereo unspecified) = 1100
• COc1cc2c(cc1OC)C(CCN1CCN(c3ccc(F)cc3)CC1)OCC2 (stereo unspecified) = 400
• NS(=O)(=O)c1ccc(N2CCN(CC[C@H]3OCCc4ccccc43)CC2)cc1 = 5600
• Fc1ccc(N2CCN(CCC3OCCc4ccccc43)CC2)cc1 (stereo unspecified) = 160

###

Biological target: D(4) dopamine receptor (Rattus norvegicus, UniProt P30729)
Sequence (P30729 whole entry): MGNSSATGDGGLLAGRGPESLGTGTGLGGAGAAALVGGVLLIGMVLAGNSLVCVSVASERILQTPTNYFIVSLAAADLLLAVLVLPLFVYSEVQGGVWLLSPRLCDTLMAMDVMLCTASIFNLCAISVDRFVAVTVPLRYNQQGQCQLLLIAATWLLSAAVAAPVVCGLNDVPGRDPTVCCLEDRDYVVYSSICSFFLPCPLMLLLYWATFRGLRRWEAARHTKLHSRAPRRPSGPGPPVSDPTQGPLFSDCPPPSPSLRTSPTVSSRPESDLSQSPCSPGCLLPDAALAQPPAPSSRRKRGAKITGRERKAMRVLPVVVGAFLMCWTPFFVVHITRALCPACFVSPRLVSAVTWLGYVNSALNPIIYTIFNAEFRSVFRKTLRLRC
Experiment: Binding affinity of [3H]spiperone towards Dopamine receptor D4 expressed in cultured cells or from rat whole brain.
pKi: −log10 of the molar value.
YES means recorded pKi is 8 or above; NO means it is below 8.

• COc1cc2c(cc1OC)C(CCN1CCN(c3ccc(F)cc3)CC1)OCC2 (configuration not stated) = NO
• Cc1ccc2c(c1)C(N1CCN(C)CC1)=Nc1cccnc1N2 = NO
• NS(=O)(=O)c1ccc(N2CCN(CC[C@H]3OCCc4ccccc43)CC2)cc1 = NO
• COc1ccc(N2CCN(CC[C@H]3OCCc4ccccc43)CC2)cc1 = NO
• COc1ccc(N2CCN(CC[C@@H]3OCCc4ccccc43)CC2)cc1 = YES
• COc1ccc(N2CCN(CCC3OCCc4ccccc43)CC2)cc1 (configuration not stated) = YES

###

Biological target: D(1A) dopamine receptor (Rattus norvegicus, UniProt P18901)
Assay: Binding affinity of [3H]SCH-23,390 towards Dopamine receptor D1 in cloned mammalian receptor expressed in cultured cells or from rat whole brain.
pKi: −log10 of the molar value.
observation.type: pKi

- COc1ccc(N2CCN(CC[C@@H]3OCCc4ccccc43)CC2)cc1: < 5.62
- COc1ccc(N2CCN(CC[C@H]3OCCc4ccccc43)CC2)cc1: < 5.62
- COc1ccc(N2CCN(CCC3OCCc4ccccc43)CC2)cc1 (stereo not drawn): < 5.62
